I'd be grateful if you could share measured Tmax for these entries.
- method.summary: Pharmacokinetics in male CD1 mice, oral administration
- test.settings: male, CD1, mouse, whole blood, po, 10 mg/kg
Could you give me the number in min? Just the number is fine.

Enquiry: Could you tell me which Tmax is on file for `Cc1sc2c(c1C)C(c1ccc(Cl)cc1)=N[C@@H](CC(=O)NC[C@H](C)O)c1nnc(C)n1-2` ?
Return: 25

Enquiry: Can you share its Tmax? I mean this compound: `Cc1sc2c(c1C)C(c1ccc(Cl)cc1)=N[C@@H](CC(=O)NC[C@@H](C)O)c1nnc(C)n1-2`
Return: 30

---

For each of the molecules below, state its clearance.
- method.summary: Pharmacokinetics in male CD1 mice, IV administration
- test.settings: male, CD1, mouse, whole blood, iv, 5 mg/kg

Enquiry: # lookup: clearance of `Cc1sc2c(c1C)C(c1ccc(Cl)cc1)=N[C@@H](CC(=O)NC[C@@H](C)O)c1nnc(C)n1-2`
Return: 29.5 mL/min/kg

Enquiry: Suppose we examine the molecule `Cc1sc2c(c1C)C(c1ccc(Cl)cc1)=N[C@@H](CC(=O)NC[C@H](C)O)c1nnc(C)n1-2` ; what clearance value has been reported?
Return: 36.7 mL/min/kg

---

Could you please report measured Vd for the items listed next?
- method.summary: Pharmacokinetics in male CD1 mice, IV administration
- test.settings: male, CD1, mouse, whole blood, iv, 5 mg/kg
Write the value in L/kg as a bare number.

Enquiry: Data request, read-out Vd, for Cc1sc2c(c1C)C(c1ccc(Cl)cc1)=N[C@@H](CC(=O)NC[C@@H](C)O)c1nnc(C)n1-2 [Compound 502]
Return: 1.48

Enquiry: Using the record for Cc1sc2c(c1C)C(c1ccc(Cl)cc1)=N[C@@H](CC(=O)NC[C@H](C)O)c1nnc(C)n1-2 [Compound 501] , report its Vd.
Return: 1.54

---

- Tested on: NMC797 cell line (BRD4 dependant NUT midline carcinoma line)
- method.summary: Cell proliferation assay (ATP content), NMC797
- Type: cell-based
- test.settings: NMC797 cells, 48-hour incubation
parameter.measured: IC50
Don't forget the unit after the value.

Enquiry: Data request, read-out IC50, for Cc1sc2c(c1C)C(c1ccc(Cl)cc1)=N[C@@H](CC(=O)OC(C)(C)C)c1nnc(C)n1-2 [JQ1, reference compound]
Return: 21 nM

---

- method.summary: Pharmacokinetics in male CD1 mice, oral administration
- test.settings: male, CD1, mouse, whole blood, po, 10 mg/kg
For each record, write down the corresponding AUC(0-t).

Enquiry: Name the reported AUC(0-t) value associated with the compound `Cc1sc2c(c1C)C(c1ccc(Cl)cc1)=N[C@@H](CC(=O)NC[C@@H](C)O)c1nnc(C)n1-2`
Return: 3100 ng·h/mL

Enquiry: # input compound: `Cc1sc2c(c1C)C(c1ccc(Cl)cc1)=N[C@@H](CC(=O)NC[C@H](C)O)c1nnc(C)n1-2` ; wanted: its AUC(0-t)
Return: 2520 ng·h/mL

---

- system: BRD4(1) (Homo sapiens (Human))
parameter.measured: IC50 (nM)
Just the number please, in nM, no unit attached.

Enquiry: Consider the molecule `Cc1sc2c(c1C)C(c1ccc(Cl)cc1)=N[C@@H](CC(=O)NCC(C)(C)O)c1nnc(C)n1-2` and give its measured IC50.
Return: 44

---

- test.settings: male, CD1, mouse, in vivo
Hi, to clarify the labels: 1 (yes) covers F from 7% upward, 0 (no) covers anything below 7%.

Enquiry: Given the entry `Cc1sc2c(c1C)C(c1ccc(Cl)cc1)=N[C@@H](CC(=O)NCC1CCN(CCN(C)C)CC1)c1nnc(C)n1-2` , answer whether its F meets or surpasses 7%.
Return: 0 (no)

Enquiry: Dear colleague, could you confirm whether `Cc1sc2c(c1C)C(c1ccc(Cl)cc1)=N[C@@H](CC(=O)N1CCC(N3CCCCC3)CC1)c1nnc(C)n1-2` has F at or above 7%?
Return: 1 (yes)

Enquiry: API: above_or_equal(metric=F, cutoff=7%) for item `Cc1sc2c(c1C)C(c1ccc(Cl)cc1)=N[C@@H](CC(=O)N1CCn3c(nnc3C(F)(F)F)C1)c1nnc(C)n1-2`
Return: 0 (no)

Enquiry: Test whether the molecule `Cc1sc2c(c1C)C(c1ccc(Cl)cc1)=N[C@@H](CC(=O)NCCCN1CCC(N3CCCCC3)CC1)c1nnc(C)n1-2` records F of 7% or higher.
Return: 0 (no)
